- target.entity: BTK (Homo sapiens, UniProt Q06187)
- Construct: High control=Cell group with added DMSO and without compound, indicating microplate readings without BTK degradation; endogenous in cells; host or cells: TMD-8 cells
- Sequence (Q06187 whole entry): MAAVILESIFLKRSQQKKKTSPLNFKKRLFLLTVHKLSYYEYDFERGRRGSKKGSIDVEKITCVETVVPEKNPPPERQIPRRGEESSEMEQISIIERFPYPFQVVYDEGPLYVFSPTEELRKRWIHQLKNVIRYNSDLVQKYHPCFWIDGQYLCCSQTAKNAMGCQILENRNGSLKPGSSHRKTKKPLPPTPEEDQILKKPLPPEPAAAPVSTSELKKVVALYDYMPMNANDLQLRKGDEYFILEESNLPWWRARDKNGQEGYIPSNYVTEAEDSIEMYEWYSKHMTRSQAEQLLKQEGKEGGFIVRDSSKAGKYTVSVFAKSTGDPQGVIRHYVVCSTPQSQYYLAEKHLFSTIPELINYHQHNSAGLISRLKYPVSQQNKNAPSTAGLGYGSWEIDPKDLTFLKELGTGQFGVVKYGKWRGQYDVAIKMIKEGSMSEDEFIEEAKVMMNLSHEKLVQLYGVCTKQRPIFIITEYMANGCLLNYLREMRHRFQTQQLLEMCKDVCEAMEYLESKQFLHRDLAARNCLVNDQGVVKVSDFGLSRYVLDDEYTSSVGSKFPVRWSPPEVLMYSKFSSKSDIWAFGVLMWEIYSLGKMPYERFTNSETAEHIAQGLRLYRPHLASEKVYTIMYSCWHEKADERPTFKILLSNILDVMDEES
- test.summary: Cell Degradation: BTK degradation in TMD-8 cells, HTRF assay
- Type: cell-based
- recorded.conditions: 6 h treatment, IC50 (DC50) of BTK degradation
Note to self: use label 1 only for DC50 readings below 1 nM; a reading exactly at 1 nM still gets label 0.

Q: Lab note: DC50 threshold 1 nM. Does this compound come in strictly under it? Cc1cc(-c2ncnc3[nH]c(-c4ccc(C5CCN(CCCC6CN(c7ccc8c(c7)C(=O)N(C7CCC(=O)NC7=O)C8=O)C6)CC5)cc4)cc23)ccc1CNC(=O)c1nc(C(C)(C)C)no1 (centres unmarked)
A: label 0

Q: Now try Cc1cc(-c2ncnc3[nH]c(-c4ccc(N5CCN(CC6CCN(c7ccc(N8CCC(=O)NC8=O)cc7)CC6)CC5)cc4)nc23)ccc1[C@@H](C)NC(=O)c1noc(C(C)(C)C)n1 .
A: label 0

Q: Now try Cc1cc(-c2ncnc3[nH]c(-c4ncc(N5CCN(CC6CCN(c7ccc(N8CCC(=O)NC8=O)cc7)CC6)CC5)s4)cc23)ccc1[C@@H](C)NC(=O)c1nc(C(C)(C)C)no1 .
A: label 0

Q: Now try Cc1cc(-c2ncnc3[nH]c(-c4ccc(C5(O)CCN(CC6CCN(c7ccc(N8CCC(=O)NC8=O)cc7)CC6)C5)cn4)cc23)ccc1[C@@H](C)NC(=O)c1nc(C(C)(C)C)no1 (some centres unmarked) .
A: label 1

Q: Now try Cc1cc(-c2ncnc3[nH]c(-c4c(C)nn(C5CCN(CC6CCN(c7ccc(N8CCC(=O)NC8=O)cc7)CC6)C5)c4C)cc23)ccc1[C@@H](C)NC(=O)c1nc(C(C)(C)C)no1 (some centres unmarked) .
A: label 0

###

- target.entity: BTK (Homo sapiens, UniProt Q06187)
- Construct: High control=Cell group with added DMSO and without compound, indicating microplate readings without BTK degradation; endogenous in cells; host or cells: TMD-8 cells
- test.summary: Cell Degradation: BTK degradation in TMD-8 cells, HTRF assay
- Type: cell-based
- recorded.conditions: 6 h treatment, IC50 (DC50) of BTK degradation
quantity: log10(DC50) (log10 of the value in nM)
# values: log10(DC50), units nM

Q: Any idea what log10(DC50) was measured for C[C@@H](NC(=O)c1noc(C(C)(C)C)n1)c1ccc(-c2ncnc3[nH]c(-c4ccc(N5CCN(CC6CCN(c7ccc(N8CCC(=O)NC8=O)cc7)CC6)CC5)cn4)cc23)cc1CO ?
A: -0.77

Q: Now try Cc1nn(C2CCN(CC3CCN(c4ccc(N5CCC(=O)NC5=O)cc4)CC3)CC2)c(C)c1-c1cc2c(-c3ccc([C@@H](C)NC(=O)c4noc(C(C)(C)C)n4)c(CO)c3)ncnc2[nH]1 .
A: -0.74

Q: Now try Cc1nn(C2CCN(CC3CCN(c4ccc(N5CCC(=O)NC5=O)cc4)CC3)CC2)c(C)c1-c1cc2c(-c3ccc([C@@H](C)NC(=O)c4cn(C(C)(C)C)nn4)c(CO)c3)ncnc2[nH]1 .
A: -0.54

Q: Now try Cc1cc(-c2ncnc3[nH]c(-c4c(C)nn(C5CCN(CCNCC6CCN(c7ccc(N8CCC(=O)NC8=O)cc7)CC6)CC5)c4C)cc23)ccc1[C@@H](C)NC(=O)c1nc(C(C)(C)C)no1 .
A: 0.29

Q: Now try Cc1cc(N2CCC(CN3CCN(c4ccc(-c5cc6c(-c7ccc([C@@H](C)NC(=O)c8nc(C(C)(C)C)no8)c(F)c7)ncnc6[nH]5)cn4)CC3)CC2)ccc1N1CCC(=O)NC1=O .
A: 0.23

###

- target.entity: BTK (Homo sapiens, UniProt Q06187)
- Construct: High control=Cell group with added DMSO and without compound, indicating microplate readings without BTK degradation; endogenous in cells; host or cells: TMD-8 cells
- test.summary: Cell Degradation: BTK degradation in TMD-8 cells, HTRF assay
- Format: cell-based
- recorded.conditions: 6 h treatment, IC50 (DC50) of BTK degradation
Provide the reported log10 DC50 of each item.
# values: log10(DC50), units nM

Q: Any idea what log10 DC50 was measured for Cc1c(-c2ncnc3[nH]c(-c4ccc(N5CCN(CC6CCN(c7ccc(N8CCC(=O)NC8=O)cc7)CC6)CC5)cc4)cc23)cccc1N1CCn2c(cc3c2CC(C)(C)C3)C1=O [Example 11] ?
A: 0.67

Q: Now try Cc1cc(-c2ncnc3[nH]c(-c4cccc(N5CCN(CC6CCN(c7ccc(N8CCC(=O)NC8=O)cc7)CC6)CC5)c4)cc23)ccc1[C@@H](C)NC(=O)c1nc(C(C)(C)C)no1 [Example 116] .
A: 0.36

Q: Now try Cc1cc(-c2ncnc3[nH]c(-c4ccc(N5CCN(CC6CCN(c7ccc(N8CCC(=O)NC8=O)cc7)CC6)C[C@@H]5C)nc4)cc23)ccc1[C@@H](C)NC(=O)c1nc(C(C)(C)C)no1 [Example 106] .
A: 0.66

Q: Now try Cc1cc(-c2ncnc3[nH]c(-c4ccc(N5CCN(CC6CCN(c7ccc(N8CCC(=O)NC8=O)cc7)CC6)CC5)nc4)cc23)ccc1[C@H](C)NC(=O)c1nc(C(C)(C)C)no1 [Example 148] .
A: 2.13

Q: Now try Cc1cc(-c2ncnc3[nH]c(-c4ccc(N5CCN(CC6CCN(c7ccc(N8CCC(=O)NC8=O)cc7)CC6)CC5)cc4)cc23)ccc1[C@@H](C)NC(=O)c1noc(C(C)(C)C)n1 [Example 41] .
A: 0.11

Q: Now try Cc1nn(C2CCN(CC3CCN(c4ccc(N5CCC(=O)NC5=O)cc4)CC3)CC2)c(C)c1-c1cc2c(-c3ccc([C@@H](C)NC(=O)c4nc(C(C)(C)C)no4)c(CO)c3)ncnc2[nH]1 [Example 138] .
A: -0.54

Q: Now try Cc1cc(-c2ncnc3[nH]c(-c4ccc(N5CCN(CC6CCN(c7ccc(N8CCC(=O)NC8=O)cc7)CC6)CC5)cc4)cc23)ccc1CNC(=O)c1noc(C(C)(C)C(F)(F)F)n1 [Example 50] .
A: 0.04

Q: Now try Cc1c([C@@H](C)NC(=O)c2noc(C(C)(C)C)n2)ccc(-c2ncnc3[nH]c(-c4ccc(N5CCN(CC6CCN(c7ccc(N8CCC(=O)NC8=O)cc7)CC6)CC5)cn4)cc23)c1F [Example 127] .
A: -0.38

Q: Now try Cc1cc(-c2ncnc3[nH]c(-c4ccc(N5CCN(CCC6CCN(c7ccc([C@@H]8CCC(=O)NC8=O)cc7)CC6)CC5)nc4)cc23)ccc1[C@@H](C)NC(=O)c1nc(C(C)(C)C)no1 [Example 54] .
A: 0.57

Q: Now try Cc1cc(-c2ncnc3[nH]c(-c4ccc(N5CCN(CC6CCN(c7ccc(N8CCC(=O)NC8=O)cc7)CC6)CC5)cc4)cc23)ccc1CNC(=O)c1cnn(C(C)(C)C)c1 [Example 35] .
A: -0.20

Q: Now try Cc1cc(-c2ncnc3[nH]c(-c4ccc(C5CCN(CC6CCN(c7ccc(N8CCC(=O)NC8=O)cc7)CC6)C5)cn4)cc23)ccc1[C@@H](C)NC(=O)c1nc(C(C)(C)C)no1 (some centres unmarked) [Example 176] .
A: 0.04

Q: Now try Cc1cc(N2CCN(CC3CCN(c4ccc(N5CCC(=O)NC5=O)c(C)c4)CC3)CC2)ccc1-c1nc2c(-c3ccc([C@@H](C)NC(=O)c4nc(C(C)(C)C)no4)c(C)c3)ncnc2[nH]1 [Example 114] .
A: 0.23

Q: Now try C[C@@H](NC(=O)c1noc(C(C)(C)C)n1)c1ccc(-c2ncnc3[nH]c(-c4ccc(N5CCN(CC6CCN(c7ccc(N8CCC(=O)NC8=O)cc7)CC6)CC5)nc4)cc23)cc1F [Example 34] .
A: 0.08

Q: Now try COc1ccc(C(=O)N2CCC(c3ccc(-c4cc5c(-c6ccc(CNC(=O)c7nc(C(C)(C)C)no7)c(C)c6)ncnc5[nH]4)cc3)CC2)cc1N1CCC(=O)NC1=O [Example 12] .
A: 0.30

Q: Now try Cc1cc(-c2ncnc3[nH]c(-c4ccc(N5CCN(CC6CCN(c7ccc(C8CCC(=O)NC8=O)cc7)CC6)CC5)cc4)cc23)ccc1[C@@H](C)NC(=O)c1nc(C(C)(C)C)no1 (some centres unmarked) [Example 55] .
A: 0.51

Q: Now try Cc1cc(-c2ncnc3[nH]c(-c4ccc(N5CCN(CC6CCN(c7ccc(N8CCC(=O)NC8=O)c(C)c7)CC6)CC5)c(C)c4)nc23)ccc1[C@@H](C)NC(=O)c1nc(C(C)(C)C)no1 [Example 112] .
A: -0.12

Q: Now try Cc1cc(-c2ncnc3[nH]c(-c4ccc(N5CCN(CC6CCN(c7ccc(N8CCC(=O)NC8=O)c(F)c7)CC6)CC5)cc4)cc23)ccc1[C@@H](C)NC(=O)c1nc(C(C)(C)C)no1 [Example 111] .
A: 0.36

Q: Now try Cc1cc(-c2ncnc3[nH]c(-c4cnc(N5CCN(CC6CCN(c7ccc(N8CCC(=O)NC8=O)cc7)CC6)CC5)s4)cc23)ccc1[C@@H](C)NC(=O)c1nc(C(C)(C)C)no1 [Example 168] .
A: -0.12

Q: Now try Cc1cc(-c2ncnc3[nH]c(-c4ccc(N5CCN(CC6CCN(c7ccc(N8CCC(=O)NC8=O)c(C)c7)CC6)CC5)cn4)cc23)c(F)cc1[C@@H](C)NC(=O)c1noc(C(C)(C)C)n1 [Example 130] .
A: -0.10

Q: Now try Cc1cc(-c2ncnc3[nH]c(-c4c(C)nn(C5CCN(CC6CCN(c7ccc(N8CCC(=O)NC8=O)c(C)c7)CC6)CC5)c4C)cc23)ccc1[C@@H](C)NC(=O)c1nc(C(C)(C)C)no1 [Example 61] .
A: -0.28
